# Tested on: 521955-158-R2-J5-PDC complex spheroids, viability
# assay explanation: Anticancer human tumor 521955-158-R2-J5-PDC patient-derived pancreatic carcinoma cell line growth inhibition [RAS]
# recorded conditions: second compound 1 µM; first compound 0.000949 µM; active compounds read low
# Source text: RAS pathway inhibitors in Combinations in Complex Spheroids A high-throughput screen of multi-cell type tumor spheroids was designed to identify active combinations of RAS pathway inhibitors and targeted small molecules. Complex spheroids include a stromal component modeled by human endothelial cells (HUVEC) and fibroblasts modeled by human mesenchymal stem cells (MSCs). […] Compounds. […] If the clinical Cmax for an agent had not been determined, the highest concentration tested was 10 microM. […]
For each entry below, report its viability, T/C value.
Value expressed in %; do not type the unit.

viability, T/C measured on CC1(C)CCC(Nc2ncc(C(F)(F)F)c(-c3c[nH]c4c(P(C)(C)=O)c(C#N)ccc34)n2)CN1 (centres undefined) + C#Cc1c(F)ccc2cc(O)cc(-c3ncc4c(N5CC6CCC(C5)N6)nc(OCC56CCCN5CC(F)C6)nc4c3F)c12 = 38.5

GET /value?item= CC1(C)CCC(Nc2ncc(C(F)(F)F)c(-c3c[nH]c4c(P(C)(C)=O)c(C#N)ccc34)n2)CN1 (centres undefined) + C=CC(=O)N1CCN(c2nc(OCC3CCCN3C)nc3c(F)c(-c4nc(N)cc(C)c4C(F)(F)F)c(Cl)cc23)C(C)C1 &field=viability, T/C returns 106

Summary for this compound, CCc1c2c(nc3ccc(O)cc13)-c1cc3c(c(=O)n1C2)COC(=O)[C@]3(O)CC + C#Cc1c(F)ccc2cc(O)cc(-c3ncc4c(N5CC6CCC(C5)N6)nc(OCC56CCCN5CC(F)C6)nc4c3F)c12 : viability, T/C is 41.1

Entry CCc1c2c(nc3ccc(O)cc13)-c1cc3c(c(=O)n1C2)COC(=O)[C@]3(O)CC + C=CC(=O)N1CCN(c2nc(OCC3CCCN3C)nc3c(F)c(-c4nc(N)cc(C)c4C(F)(F)F)c(Cl)cc23)C(C)C1 — recorded viability, T/C = 84.2

---

# System: 521955-158-R2-J5-PDC complex spheroids, viability
# assay explanation: Anticancer human tumor 521955-158-R2-J5-PDC cell line growth inhibition [RAS];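 note: spheroids also contain HUVEC endothelial cells and mesenchymal stem cells as stroma; compound exposure lasted seven days before the viability read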
# recorded conditions: second compound 0.3 µM; first compound 0.00316 µM; active compounds read low
The label yes (1) is reserved for viability, T/C strictly under 20%; no (0) covers values equal to or above it.

Exercise: Quick check: does O=C(c1ccc(F)c(F)c1Nc1ccc(I)cc1F)N1CC(O)([C@@H]2CCCCN2)C1 + CCn1c(-c2cccnc2C(C)OC)c2c3cc(ccc31)N1CCOC(CC(NC(=O)C(C(C)C)N(C)C(=O)C3(F)CCN(C(=O)C#CC(C)(C)N(C)C)CC3)C(=O)N3CCCC(N3)C(=O)OCC(C)(C)C2)C1 have viability, T/C under 20%?
Solution: no (0)

Exercise: Determine whether this compound shows viability, T/C lower than 20% (ties excluded): C=CC(=O)N1CCN(c2nc(OCC3CCCN3C)nc3c(F)c(-c4nc(N)cc(C)c4C(F)(F)F)c(Cl)cc23)C(C)C1 (stereo not drawn) + CCn1c(-c2cccnc2C(C)OC)c2c3cc(ccc31)N1CCOC(CC(NC(=O)C(C(C)C)N(C)C(=O)C3(F)CCN(C(=O)C#CC(C)(C)N(C)C)CC3)C(=O)N3CCCC(N3)C(=O)OCC(C)(C)C2)C1
Solution: no (0)

Exercise: Just wondering, is viability, T/C of C=CC(=O)N1CCN(c2nc(OCC3CCCN3C)nc3c(F)c(-c4nc(N)cc(C)c4C(F)(F)F)c(Cl)cc23)C(C)C1 (stereo not drawn) + CCn1c(-c2cc(N3CCN(C)CC3)cnc2C(C)OC)c2c3cc(ccc31)-c1csc(n1)CC(NC(=O)C1CC1C)C(=O)N1CCCC(N1)C(=O)OCC(C)(C)C2 below 20%?
Solution: yes (1)

Exercise: Does this compound meet the criterion viability, T/C < 20%? O=C(c1ccc(F)c(F)c1Nc1ccc(I)cc1F)N1CC(O)([C@@H]2CCCCN2)C1 + CCn1c(-c2cc(N3CCN(C)CC3)cnc2C(C)OC)c2c3cc(ccc31)-c1csc(n1)CC(NC(=O)C1CC1C)C(=O)N1CCCC(N1)C(=O)OCC(C)(C)C2
Solution: yes (1)

Exercise: State whether 20% exceeds viability, T/C recorded for C=CC(=O)Nc1cc(Nc2nccc(-c3cn(C)c4ccccc34)n2)c(OC)cc1N(C)CCN(C)C + CCn1c(-c2cccnc2C(C)OC)c2c3cc(ccc31)N1CCOC(CC(NC(=O)C(C(C)C)N(C)C(=O)C3(F)CCN(C(=O)C#CC(C)(C)N(C)C)CC3)C(=O)N3CCCC(N3)C(=O)OCC(C)(C)C2)C1 .
Solution: no (0)

Exercise: Lab log: compare recorded viability, T/C with 20%; is it strictly lower for CC(C)n1nc(-c2ccc3oc(N)nc3c2)c2c(N)ncnc21 + CCn1c(-c2cccnc2C(C)OC)c2c3cc(ccc31)N1CCOC(CC(NC(=O)C(C(C)C)N(C)C(=O)C3(F)CCN(C(=O)C#CC(C)(C)N(C)C)CC3)C(=O)N3CCCC(N3)C(=O)OCC(C)(C)C2)C1 ?
Solution: no (0)

Exercise: Below 20% on viability, T/C? Entry CCN1CCN(Cc2ccc(Nc3ncc(F)c(-c4cc(F)c5nc(C)n(C(C)C)c5c4)n3)nc2)CC1 + CCn1c(-c2cccnc2C(C)OC)c2c3cc(ccc31)N1CCOC(CC(NC(=O)C(C(C)C)N(C)C(=O)C3(F)CCN(C(=O)C#CC(C)(C)N(C)C)CC3)C(=O)N3CCCC(N3)C(=O)OCC(C)(C)C2)C1
Solution: no (0)

Exercise: Item C=CC(=O)Nc1cc(Nc2nccc(-c3cn(C)c4ccccc34)n2)c(OC)cc1N(C)CCN(C)C + CCn1c(-c2cc(N3CCN(C)CC3)cnc2C(C)OC)c2c3cc(ccc31)-c1csc(n1)CC(NC(=O)C1CC1C)C(=O)N1CCCC(N1)C(=O)OCC(C)(C)C2 : viability, T/C beneath 20%, strictly?
Solution: yes (1)

---

# System: 521955-158-R2-J5-PDC complex spheroids, viability
# assay explanation: Anticancer human tumor 521955-158-R2-J5-PDC cell line growth inhibition [RAS];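 note: spheroids also contain HUVEC endothelial cells and mesenchymal stem cells as stroma; compound exposure lasted seven days before the viability read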
# recorded conditions: second compound 0.003 µM; first compound 0.03 µM; active compounds read low
readout label: viability, T/C (%)
Field format: number, assumed %, no unit text.

viability, T/C recorded for this molecule, CC1(C)CCC(Nc2ncc(C(F)(F)F)c(-c3c[nH]c4c(P(C)(C)=O)c(C#N)ccc34)n2)CN1 (centres undefined) + CCn1c(-c2cccnc2C(C)OC)c2c3cc(ccc31)N1CCOC(CC(NC(=O)C(C(C)C)N(C)C(=O)C3(F)CCN(C(=O)C#CC(C)(C)N(C)C)CC3)C(=O)N3CCCC(N3)C(=O)OCC(C)(C)C2)C1 , is 44

The reported value for CCc1c2c(nc3ccc(O)cc13)-c1cc3c(c(=O)n1C2)COC(=O)[C@]3(O)CC + CCn1c(-c2cccnc2C(C)OC)c2c3cc(ccc31)N1CCOC(CC(NC(=O)C(C(C)C)N(C)C(=O)C3(F)CCN(C(=O)C#CC(C)(C)N(C)C)CC3)C(=O)N3CCCC(N3)C(=O)OCC(C)(C)C2)C1 in terms of viability, T/C is 5.84

According to the records, this molecule CC1(C)CCC(Nc2ncc(C(F)(F)F)c(-c3c[nH]c4c(P(C)(C)=O)c(C#N)ccc34)n2)CN1 (centres undefined) + CCn1c(-c2cc(N3CCN(C)CC3)cnc2C(C)OC)c2c3cc(ccc31)-c1csc(n1)CC(NC(=O)C1CC1C)C(=O)N1CCCC(N1)C(=O)OCC(C)(C)C2 displays viability, T/C of 23.1

# viability, T/C (molecule: CCc1c2c(nc3ccc(O)cc13)-c1cc3c(c(=O)n1C2)COC(=O)[C@]3(O)CC + CCn1c(-c2cc(N3CCN(C)CC3)cnc2C(C)OC)c2c3cc(ccc31)-c1csc(n1)CC(NC(=O)C1CC1C)C(=O)N1CCCC(N1)C(=O)OCC(C)(C)C2 ) is 10.5

---

Can you tell me viability, T/C for the items I'm about to list?
# Test system: 521955-158-R2-J5-PDC complex spheroids, viability
# assay explanation: Anticancer human tumor 521955-158-R2-J5-PDC cell line growth inhibition [RAS];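 note: spheroids also contain HUVEC endothelial cells and mesenchymal stem cells as stroma; compound exposure lasted seven days before the viability read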
# recorded conditions: second compound 0.003 µM; first compound 0.01 µM; active compounds read low
API: value field is a number in %; no unit string.

Summary for this molecule, C=CC(=O)Nc1cc(Nc2nccc(-c3cn(C)c4ccccc34)n2)c(OC)cc1N(C)CCN(C)C + CCn1c(-c2cc(N3CCN(C)CC3)cnc2C(C)OC)c2c3cc(ccc31)-c1csc(n1)CC(NC(=O)C1CC1C)C(=O)N1CCCC(N1)C(=O)OCC(C)(C)C2 : viability, T/C is 46.9

// viability, T/C value for O=C(c1ccc(F)c(F)c1Nc1ccc(I)cc1F)N1CC(O)([C@@H]2CCCCN2)C1 + CCn1c(-c2cccnc2C(C)OC)c2c3cc(ccc31)N1CCOC(CC(NC(=O)C(C(C)C)N(C)C(=O)C3(F)CCN(C(=O)C#CC(C)(C)N(C)C)CC3)C(=O)N3CCCC(N3)C(=O)OCC(C)(C)C2)C1 : 62.5

Data point: C=CC(=O)Nc1cc(Nc2nccc(-c3cn(C)c4ccccc34)n2)c(OC)cc1N(C)CCN(C)C + CCn1c(-c2cccnc2C(C)OC)c2c3cc(ccc31)N1CCOC(CC(NC(=O)C(C(C)C)N(C)C(=O)C3(F)CCN(C(=O)C#CC(C)(C)N(C)C)CC3)C(=O)N3CCCC(N3)C(=O)OCC(C)(C)C2)C1 ; viability, T/C = 82.6

The reported value for C=CC(=O)N1CCN(c2nc(OCC3CCCN3C)nc3c(F)c(-c4nc(N)cc(C)c4C(F)(F)F)c(Cl)cc23)C(C)C1 (centres undefined) + CCn1c(-c2cc(N3CCN(C)CC3)cnc2C(C)OC)c2c3cc(ccc31)-c1csc(n1)CC(NC(=O)C1CC1C)C(=O)N1CCCC(N1)C(=O)OCC(C)(C)C2 in terms of viability, T/C is 36.5
